# Protocol Details: Ratio of drug level in brain to plasma in rat at 1 mg/kg, iv and 6 mg/kg, po
# Format: ADME, organism-based
# Run Conditions: in the assay text read “10 mg/kg” for “6 mg/kg”, read-out: BPR
Property: Kp
Answers are plain numbers.

Suppose we examine the molecule O=C(Nc1nc(C(F)(F)F)co1)C1c2cccc(F)c2Oc2c(F)cccc21 ; what Kp value has been reported?
0.2

----------
# Protocol Details: Volume of distribution in rat at 5 mg/kg, iv and 10 mg/kg, po
# Type: ADME, organism-based
# Run Conditions: in vivo, read-out: Vdss
Property: Vd (L/kg)
One number for each entry, in L/kg.

Suppose we examine the compound O=C(Nc1nc(C(F)(F)F)co1)C1c2ccccc2Oc2c(F)cccc21 (racemic) ; what Vd value has been reported?
0.99
